target: CD28 (Homo sapiens, UniProt P10747); test: Jurkat/IL2 + K562/OKT3/PD-L1 reporter assay; type: cell-based; set-up: host or cells: Jurkat cells expressing an IL-2-luciferase reporter; conditions: Table E8; K562/OKT3/PD-L1 aAPC; 50 nM
quantity name: Relative Luciferase Units (RLU), CD80-Fe Cone 50 nM

[
  {
    "molecule": "E35D/M47I/L85Q/D90G (protein, UniProt P33681 35-288, looked up, variant E35D M47I L85Q D90G) T-lymphocyte activation …: VIHVTKEVKEVATLSCGHNVSVEELAQTRIYWQKDKKMVLTMMSGDINIWPEYKNRTIFDITNNLSIVILALRPSDEGTYECVVQKYEKGAFKREHLAEVTLSVKADFPTPSISDFEIPTSNIRRIICSTSGGFPEPHLSWLENGEELNAINTTVSQDPETELYAVSSKLDFNMTTNHSFMCLIKYGHLRVNQTFNWNTTKQEHFPDNLLPSWAITLISVNGIFVICCLTYCFAPRCRERRRNERLRRESVRPV",
    "reported result": 1438
  }
]
